Each record here notes measured Growth Rate.
System: U2OS
Assay: Incucyte cell viability with U2OS; further: unitless GR value; below 1 slowed growth and below 0 cell loss
Assay type: toxicity, cell-based
Details: human, 6 h, 10 µM, compound concentration 10 uM, replicate number 2, timepoint 6 hours
parameter.measured: Growth Rate

1) COC(=O)N1CCN(C(=O)Cc2ccc(Cl)c(Cl)c2)C(CN2CCCC2)C1.O=C(O)/C=C/C(=O)O (configuration not stated) | 0.4
2) CCNC(=O)[C@H]1O[C@@H](n2cnc3c(N)nc(NCCc4ccc(CCC(=O)O)cc4)nc32)[C@H](O)[C@@H]1O.Cl | 0.99
3) CC(/C=C1\SC(=S)N(CCCC(=O)Nc2ccc(C(=O)O)c(O)c2)C1=O)=C\c1ccccc1 | 0.79
4) CSCC[C@H](NC=O)C(=O)N[C@@H](CC(C)C)C(=O)N[C@@H](Cc1ccccc1)C(=O)O | 0.44
5) Cn1cc(C(=O)OCC2CCN(CCNS(C)(=O)=O)CC2)c2ccccc21 | 0.45
6) Cc1nn(C)c(C)c1-c1cccc2c1CC[C@H](N(C)C)C2 | 0.91
7) CSc1nc(NC2CCCC2)c([N+](=O)[O-])c(NC2CCCC2)n1 [GS-39783] | 0.83
8) O=C1[C@H](Cc2ccc(O)cc2)N2C(=O)CCN(C(=O)NCc3ccccc3)[C@H]2CN1Cc1cccc2ccccc12 | 0.87
9) Fc1cccc(/C=N/N=C/c2cccc(F)c2)c1 | 0.83
10) N[C@@]1(C(=O)O)CO[C@H]2[C@H](C(=O)O)[C@H]21 [LY-379268] | 0.99
11) CC[C@H]1CN2CCc3cc(OC)c(OC)cc3[C@@H]2C[C@@H]1C[C@H]1NCCc2cc(OC)c(OC)cc21 [EMETINE] | 0.89
12) Cc1ccc(/C(=C\CN2CCCC2)c2ccccn2)cc1 [TRIPROLIDINE] | 0.77
13) COc1cc(OC2CCN(C(C)=O)CC2)ccc1C(=O)N1CCC(N2C(=O)OCc3ccccc32)CC1 | 0.79
14) COc1ccc2[nH]c(I)c(CCNC(C)=O)c2c1 [IODOMELATONIN] | 0.81
15) CCS(=O)(=O)Nc1ccc(Oc2ccc(F)cc2F)c(-c2cn(C)c(=O)c3[nH]ccc23)c1 [MIVEBRESIB] | 0.85
16) Cc1noc(-c2ccc(-c3ccc(CC(=O)O)cc3)cc2)c1NC(=O)O[C@H](C)c1ccccc1Cl | 0.82
17) Cc1ccc(Cn2nc(C(=O)N[C@@H]3C(C)(C)[C@@H]4CC[C@@]3(C)C4)cc2-c2ccc(Cl)c(C)c2)cc1 | 0.89
18) CC(C)Cc1ccc([C@@H](C)C(=O)NS(C)(=O)=O)cc1 [REPARIXIN] | 0.83
19) CCCCCCNC(=O)Nc1ccc(S(=O)(=O)Nc2ccc(CCNC[C@H](O)COc3ccc(O)cc3)cc2)cc1 [L-755507] | 0.75
20) COc1ccc(-n2c(C)c([N+](=O)[O-])c3ccc(O)cc32)cc1 | 0.75
21) COc1cc(C(=O)N(CCCc2ccccc2)Cc2ccc(CC(=O)O)cc2)cc(OC)c1C | 0.79
22) O=S(=O)(c1ccccc1)c1cnc2c(N3CCNCC3)cccc2c1 [INTEPIRDINE] | 0.23
23) N=C(N)NCCC[C@H](NC(=O)COCC(c1ccccc1)c1ccccc1)C(=O)O.O=C(O)C(F)(F)F | 0.72
24) CC[C@@]1(O)C(=O)OCc2c1cc1n(c2=O)Cc2cc3ccccc3nc2-1 [CAMPTOTHECIN] | 0.82
25) O=C(NCCO)c1cccc(-c2cc(Nc3ccc(OC(F)(F)F)cc3)ncn2)c1 | 1
26) CC(C)n1cnc2c(Nc3cccc(Cl)c3)nc(N[C@H]3CCCC[C@@H]3N)nc21 | 0.4
27) CCCCCCCCc1ccc(CCC(N)(CO)CO)cc1 [FINGOLIMOD] | -0.45
28) CC1=C(C)C(=O)C(C(C)(C)CC(=O)N(CCCCSC[C@H]2O[C@@H](n3cnc4c(N)ncnc43)[C@H](O)[C@@H]2O)Cc2cccc(-c3ccc(Cl)cc3)c2)=C(C)C1=O | 0.98
29) CCCCCCCC/C=C\CCCCCCCC(N)=O [OLEAMIDE] | 1
30) O=C(O)c1n[nH]c2c1C[C@H]1C[C@@H]21 | 0.74
31) CN1C[C@@H](NS(=O)(=O)N(C)C)C[C@@H]2c3cccc4c3c(cn4C)C[C@H]21.Cl [MESULERGINE HYDROCHLORIDE] | 0.84
32) O=C(O)Cc1ccccc1Nc1c(Cl)cccc1Cl [DICLOFENAC] | 0.98
33) Cc1cc(OCCCS(C)(=O)=O)cc(C)c1-c1cccc(COc2ccc3c(c2)OC[C@H]3CC(=O)O)c1 | 0.73
34) CN(C)C(=O)Cn1cc(-c2ccc(-c3cncc4ccccc34)cc2)cn1 | 0.79
35) CC(C)CC(=O)Nc1cncc(-c2ccc3[nH]nc(-c4nc5c(-c6cccc(F)c6)cncc5[nH]4)c3c2)c1 [LORECIVIVINT] | -0.16
36) CN1CCc2cc(Cl)c(O)cc2[C@@H](c2ccccc2)C1.Cl | 0.49
37) C[C@@H]1CN(Cc2ccc(F)cc2)CCN1C(=O)COc1ccc(Cl)cc1NC(N)=O [BX 471 FREE BASE] | 0.94
